src = paper PMC7751916

# TARGET OR SYSTEM: hCA I (Homo sapiens, UniProt P00915)
# Sequence (P00915 whole entry): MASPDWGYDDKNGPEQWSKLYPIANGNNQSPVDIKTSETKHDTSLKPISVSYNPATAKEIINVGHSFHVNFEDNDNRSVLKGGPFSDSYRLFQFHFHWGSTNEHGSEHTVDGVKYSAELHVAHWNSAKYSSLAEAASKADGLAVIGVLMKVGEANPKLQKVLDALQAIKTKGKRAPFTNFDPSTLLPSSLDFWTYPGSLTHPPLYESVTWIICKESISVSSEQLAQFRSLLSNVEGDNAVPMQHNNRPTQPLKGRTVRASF
Threshold-based label: Ki under 10 nM gives true (1), Ki not under 10 nM gives false (0).

See these solved cases before continuing.
substance_smiles=Cn1nnnc1SCC(=O)c1ccc(O)cc1 target_or_system="hCA I (Homo sapiens, UniProt P00915)" qualitative_label="false (0)"
substance_smiles=Cn1ccnc1SCC(=O)c1ccc(O)cc1 target_or_system="hCA I (Homo sapiens, UniProt P00915)" qualitative_label="false (0)"

Ask | Decide: Ki of `O=C(CSc1nc2ccccc2o1)c1ccc(O)cc1` strictly below 10 nM?
Reply | true (1)

Ask | Decide: Ki of `O=C(CSc1nc2ccccc2s1)c1ccc(O)cc1` strictly below 10 nM?
Reply | false (0)

Ask | Decide: Ki of `Cc1nnc(SCC(=O)c2ccc(O)cc2)s1` strictly below 10 nM?
Reply | false (0)

Ask | Decide: Ki of `Cn1cnnc1SCC(=O)c1ccc(O)cc1` strictly below 10 nM?
Reply | false (0)

* * *

Recorded IC50 for the following compounds
# TARGET OR SYSTEM: hCA I (Homo sapiens, UniProt P00915)
Return type: number; implicit unit nM.

substance_smiles=Cn1ccnc1SCC(=O)c1ccc(O)cc1 property=IC50 test_value=35.2
substance_smiles=Cc1nnc(SCC(=O)c2ccc(O)cc2)s1 property=IC50 test_value=48.1
substance_smiles=Cn1cnnc1SCC(=O)c1ccc(O)cc1 property=IC50 test_value=65.6
substance_smiles=O=C(CSc1nc2ccccc2s1)c1ccc(O)cc1 property=IC50 test_value=35.4
substance_smiles=O=C(CSc1nc2ccccc2o1)c1ccc(O)cc1 property=IC50 test_value=32.8

Next up:
Notebook: `Cn1nnnc1SCC(=O)c1ccc(O)cc1` , IC50 read as 62.5

* * *

Target or system hCA II (Homo sapiens, UniProt P00918): recorded pIC50 listed per item.
Entry type: numeric. Quantity: pIC50, the -log10 of concentration in molar units.

Query `O=C(CSc1nc2ccccc2o1)c1ccc(O)cc1` on hCA II (Homo sapiens, UniProt P00918); pIC50 returned: 7.36

Query `Cn1nnnc1SCC(=O)c1ccc(O)cc1` on hCA II (Homo sapiens, UniProt P00918); pIC50 returned: 7.24

Query `Cn1cnnc1SCC(=O)c1ccc(O)cc1` on hCA II (Homo sapiens, UniProt P00918); pIC50 returned: 7.47

Query `Cc1nnc(SCC(=O)c2ccc(O)cc2)s1` on hCA II (Homo sapiens, UniProt P00918); pIC50 returned: 7.38

Query `O=C(CSc1nc2ccccc2s1)c1ccc(O)cc1` on hCA II (Homo sapiens, UniProt P00918); pIC50 returned: 7.53

Query `Cn1ccnc1SCC(=O)c1ccc(O)cc1` on hCA II (Homo sapiens, UniProt P00918); pIC50 returned: 7.40

* * *

Recorded Ki for the following compounds
# TARGET OR SYSTEM: hCA II (Homo sapiens)
Return type: number; implicit unit µM.

Guide cases for Ki, answers given:
substance_smiles=O=C(CSc1nc2ccccc2s1)c1ccc(O)cc1 property=Ki test_value=0.00876
substance_smiles=Cn1cnnc1SCC(=O)c1ccc(O)cc1 property=Ki test_value=0.0143
substance_smiles=Cn1nnnc1SCC(=O)c1ccc(O)cc1 property=Ki test_value=0.0274
substance_smiles=Cn1ccnc1SCC(=O)c1ccc(O)cc1 property=Ki test_value=0.0316
substance_smiles=Cc1nnc(SCC(=O)c2ccc(O)cc2)s1 property=Ki test_value=0.0169

Query `O=C(CSc1nc2ccccc2o1)c1ccc(O)cc1` on hCA II (Homo sapiens); Ki returned: 0.0234
